# Tested on: HSV-1 (KOS)
# experiment: HSV-1 infection ELISA assay
# Assay type: cell-based, herpes simplex virus
# test_parameters: Table 12; inosine-substituted oligonucleotides against HSV
pEC50: −log10 of the molar value. [I] = hypoxanthine (inosine)
readout_label: pEC50

Record 5295 (GTTGGAGACCGGGNTTGGGG; DNA, [I] at 14, backbone not given here) [compound 5295] . Reported pEC50: < 5.52

Sure, the documented pEC50 for 5309 (GTTGGAGACCGNGTTGGGG; inosine substitution, further chemistry not given here) [compound 5309] is < 5.52

The reported pEC50 of the substance 5297 (CACGAAAGGCATGACCGNGGC; DNA, [I] at 18, backbone not given here) [compound 5297] was < 5.52
